# Test system: Zika virus NS2B-NS3 protease
# MEASUREMENT_NOTES: Primary screen GU AMC qHTS for Zika virus inhibitors (AID 1347154); note: nearly all actives have a fitted effect of over 70% in size; note: potency is the fitted concentration of half-maximal effect
# TEST_SETTINGS: Zika NS2B-NS3 unlinked protease, AMC fluorogenic substrate; series mostly up to 54.1 µM
Inconclusive results are not listed. Active and inactive are the calls of the source. Calls come from the whole dose curve; as a rule, active = well fitted inhibition curve with a large enough effect; inconclusive = small, poorly fitted or top-dose-only effect; inactive = flat fitted curve, though single readings scatter.

ITEM_SMILES	MEASURED_ON	Potency
Cc1ccc(Nc2cc(-c3cccc(N4C(=O)c5ccccc5C4=O)c3)ncn2)cc1NS(C)(=O)=O	Zika virus NS2B-NS3 protease	inactive
O=C(O)c1cc(O)c2c(c1)C(=O)c1cccc(O)c1C2=O	Zika virus NS2B-NS3 protease	24.8 µM (active)
O=C(O)c1ccccc1C(=O)Nc1ccc(-c2ccccc2)cc1	Zika virus NS2B-NS3 protease	inactive

----------
# MEASUREMENT_NOTES: Quantitative High-Throughput drug screen in 47 multiple myeloma cell lines against the NCATS MIPE library collection: KMS28PE_JCRB cell viability assay (AID 1918983); note: nearly all actives have a fitted effect of over 35% in size
# TEST_SETTINGS: KMS28PE multiple myeloma viability, CellTiter-Glo ATP, 48 h; series mostly up to 45.8 µM
Inconclusive results are not listed. Active and inactive are the calls of the source. Calls come from the whole dose curve; as a rule, active = well fitted cell-killing curve with a large enough effect; inconclusive = small, poorly fitted or top-dose-only effect, or effect the other way; inactive = no such curve, though single readings can be large or run the other way.
Hi there, use one of these labels in your reply, thanks! 1 (yes) = active, 0 (no) = inactive

COMPOUND	CLASSIFICATION
CCOC(=O)C1=C(N)Oc2ccc(Br)cc2C1C(C#N)C(=O)OCC (stereo not given)	1 (yes)
CC#CCn1c(N2CCC[C@@H](N)C2)nc2c1c(=O)n(Cc1nc(C)c3ccccc3n1)c(=O)n2C	0 (no)
CC(C)(C)NC(=O)Nc1cccc(Nc2ncc(F)c(NC(C)(C)CO)n2)c1	0 (no)
CO[C@H]1C[C@@H]2CC[C@@H](C)[C@@](O)(O2)C(=O)C(=O)N2CCCC[C@@H]2C(=O)O[C@H]([C@H](C)C[C@@H]2CC[C@H](OP(C)(C)=O)[C@H](OC)C2)CC(=O)[C@H](C)C=C(C)[C@@H](O)[C@@H](OC)C(=O)[C@H](C)C[C@H](C)C=CC=CC=C1C	0 (no)

Shift focus to the following entry.
Problem: Assay outcome for NC1=N[C@@]2(c3cc(NC(=O)c4ccc(F)cn4)ccc3F)COC[C@@H]2CS1 : what was it?
Solution: 0 (no)

----------
# MEASUREMENT_NOTES: qHTS of pediatric cancer cell lines to identify multiple opportunities for drug repurposing: Primary screen for NB-EBc1 cells (AID 1347095); note: potency is the fitted concentration of half-maximal effect
# TEST_SETTINGS: NB-EBc1 neuroblastoma viability, CellTiter-Glo luminescence, 48 h; series mostly up to 46 µM
Inconclusive results are not listed. The source made the active and inactive calls. Calls follow the shape of the dose curve; as a rule, active = well fitted cell-killing curve with a large enough effect; inconclusive = small, poorly fitted or top-dose-only effect; inactive = no such curve, though single readings can be large or run the other way.
READOUT_TYPE: Potency

Worked set:
COMPOUND	Potency
NC(=O)[C@@H](CCC(F)(F)F)N(Cc1ccc(-c2ncon2)cc1F)S(=O)(=O)c1ccc(Cl)cc1	inactive
Cc1ccn(-c2ccc(-c3ncco3)cc2)c(=O)c1-c1ccc2nc(N)ncc2c1	inactive
O=C(NCc1ccncc1)C12C[C@H]3C[C@@H](C1)CC(c1ccc(Cl)cc1)(C3)C2	18.7 µM (active)
CC(C)NCC(O)COc1cccc2[nH]ccc12 (stereo unspecified)	inactive

Problem: Annotate the compound COc1cccc(-c2cc(=O)c3ccccc3o2)c1N with its measured Potency.
Solution: inactive

Problem: Provide only the value of recorded Potency for Cc1c(NC(=O)c2ccc(C(C)(C)C)cc2)cccc1-c1cn(C)c(=O)c(Nc2ccc(C(=O)N3CCOCC3)cc2)n1
Solution: 18.7 µM (active)

Problem: Complete the entry with Potency for O=C(Nc1c(Cl)cncc1Cl)c1ccc(OC(F)F)c(OCC2CC2)c1
Solution: inactive

These measurements were taken from PubChem BioAssay (NCATS).
